- Assay Protocol: in vitro
- Condition Details: human, CC50 [μM] (Geomeans, n ≥ 2 except where indicated: *n = 1)
Reported Endpoint: CC50

Below: 6 compounds and their reported CC50.
{"Compound": "C[C@@H]1CCCN1CCc1cc2cc(-c3ccc(C#N)cc3)ccc2o1 [ABT-239]", "Reported Endpoint": "CC50", "Result": "> 37.2 µM"}
{"Compound": "CCNCc1cc(Nc2ccnc3cc(Cl)ccc23)ccc1O", "Reported Endpoint": "CC50", "Result": "> 20.4 µM"}
{"Compound": "COc1ccc(C2(c3ccccc3)NC(=O)N(CCCN3CCC(c4ccccc4)CC3)C2=O)cc1 (centres unmarked) [ROPITOIN]", "Reported Endpoint": "CC50", "Result": "21.5 µM"}
{"Compound": "CC1=C(c2ccc(O)cc2)[C@H](c2ccc(OCCN3CCCCC3)cc2)Oc2cc(O)ccc21 [ACOLBIFENE]", "Reported Endpoint": "CC50", "Result": "13.4 µM"}
{"Compound": "COc1cc(C(C)=O)ccc1OCCCN1CCC(C(O)(c2ccc(F)cc2)c2ccc(F)cc2)CC1 [AHR-5333]", "Reported Endpoint": "CC50", "Result": "> 24.7 µM"}
{"Compound": "CN1CCN(CCCN2c3ccccc3Sc3ccc(S(=O)(=O)N(C)C)cc32)CC1 [Thioproperazine]", "Reported Endpoint": "CC50", "Result": "22.1 µM"}

For the 2 compounds below, give their CC50 values.
1. CN1[C@@H]2CC[C@H]1C[C@@H](N1Cc3ccc4ccccc4c3C1=O)C2 [CR-3124]
2. CC(C)(/C=N/OCC(=O)O)Cc1c(SC(C)(C)C)c2cc(OCc3ccc4ccccc4n3)ccc2n1Cc1ccc(Cl)cc1 [A 81834]

1. > 39.8 µM
2. > 22.6 µM

###

- Assay Protocol: in vitro
- Condition Details: human, Uninfected HeLa-ACE2 CC50 (μM)
Structures can show the parent of a compound that is named as a salt.
Reported Endpoint: CC50

{"Compound": "CCC(CC)COC(=O)[C@H](C)N[P@](=O)(OC[C@H]1O[C@@](C#N)(c2ccc3c(N)ncnn23)[C@H](O)[C@@H]1O)Oc1ccccc1", "CC50": "> 8.46 µM"}
{"Compound": "COC(=O)C1=C(C)NC(C)=C(C(=O)OC)C1c1cc([N+](=O)[O-])ccc1OCCCCNC[C@H](O)COc1ccccc1", "CC50": "11.3 µM"}

Would you be so kind as to report CC50 for each listed record?
1. N#Cc1c(N)nc(N)nc1N[C@H](c1nc2c(F)ccc(Cl)c2c(=O)n1-c1cccnc1)C1CC1
2. COC(=O)C1=C(C)NC(C)=C(C(=O)OCCN2CCN(C(c3ccccc3)c3ccccc3)CC2)C1c1cccc([N+](=O)[O-])c1 (centres unmarked)
3. CCCCN(CCCC)CCC(O)c1cc2c(Cl)cc(Cl)cc2c2cc(C(F)(F)F)ccc12 (centres unmarked) [Halofantrine HCl]
4. CCN(CCO)CCCC(C)Nc1ccnc2cc(Cl)ccc12 (centres unmarked) [hydroxychloroquine, nasal, hydroxychloroquine]

["> 31.1 µM", "> 17.1 µM", "> 23.9 µM", "> 18.3 µM"]

Give me CC50 for each of these compounds, listed below.
1. NCCc1cn(S(=O)(=O)c2c(Cl)nc3sccn23)c2ccccc12
2. CCCCN1CC[C@H](c2ccc(N(C)C)cc2)[C@@H](COc2ccc(C(F)(F)F)cc2)C1
3. CCN1CCC(c2cc(C)c3nc(-c4cc5c(C)nc(C)cn5n4)cc(=O)n3c2)CC1
4. CCCCC1CCc2cc(O)cc3c(CCN4CCN(c5cc(C)ccn5)CC4)c(C)n1c23 (centres unmarked)
5. COc1ccc2c(O[C@@H]3C[C@H]4C(=O)N[C@]5(C(=O)NS(=O)(=O)C6CC6)C[C@H]5/C=C\CCCCN(C)C(=O)[C@@H]4C3)cc(-c3nc(C(C)C)cs3)nc2c1C

1: 7.43 µM; 2: > 15.4 µM; 3: 7.16 µM; 4: > 20.9 µM; 5: > 22.2 µM

For each of the items listed, what is its CC50?
1. Cc1c(O)cccc1C(=O)N[C@@H](CSc1ccccc1)[C@H](O)CN1C[C@H]2CCCC[C@H]2C[C@H]1C(=O)NC(C)(C)C [nelfinavir mesylate]
2. Nc1cc(OCC2CC2)c(C(=O)NC2CN3CCC2CC3)cc1Cl (centres unmarked) [Pancopride]
3. COc1ccc2cc1Oc1ccc(cc1)C[C@H]1c3cc(c(OC)cc3CCN1C)Oc1c(OC)c(OC)cc3c1[C@H](C2)N(C)CC3

["> 18 µM", "> 37.3 µM", "> 18.9 µM"]

###

For each record, write down the corresponding CC50.
- Assay Protocol: in vitro
- Condition Details: human, CC50 [μM] (Geomeans, n ≥ 2 except where indicated: *n = 1)
Counter-ions that a name gives are not always drawn.

Some entries whose results are on file:
{"Compound": "CCN(CC)CCCNc1ccnc2cc(Cl)ccc12", "CC50": "25.9 µM"}
{"Compound": "C=CCc1c(OCCCNCc2ccccc2)ccc2c1[nH]c1ccccc12", "CC50": "8.01 µM"}
{"Compound": "C[C@@H](n1cnc2cc(Cl)ccc2c1=O)[C@](O)(Cn1cncn1)c1ccc(F)cc1F", "CC50": "> 39.8 µM"}

I would be grateful if you could provide CC50 for each of the following entries.
1. CCOC(=O)c1c(CSc2ccccc2)n(C)c2cc(Br)c(O)c(CN(C)C)c12
2. Cc1cccc(C)c1NC(=O)CN1CCN([C@@H]2CCN(C(=O)c3cc(C(F)(F)F)cc(C(F)(F)F)c3)[C@@H](Cc3ccccc3)C2)CC1
3. COc1cc(C[C@H]2c3cc(OC)c(OC)cc3CCN2C)c(Oc2cc3c(cc2OC)-c2c(OC)c(OC)cc4c2[C@H](C3)N(C)CC4)cc1OC
4. O=C(c1ccc(OCCN2CCCCC2)cc1)c1c(-c2ccc(O)cc2)sc2cc(O)ccc12 [raloxifene hydrochloride]
5. CCCN1CCN(c2ccc(C(=O)NC3(C(=O)NCC#N)CCCCC3)cc2)CC1

1. > 29.1 µM
2. 25.5 µM
3. > 26.6 µM
4. > 13.3 µM
5. > 39.8 µM

###

- Assay Protocol: in vitro
- Condition Details: human, CC50 [μM] (Geomeans, n ≥ 2 except where indicated: *n = 1)
Counter-ions that a name gives are not always drawn. Residues, ends and D or L forms follow the SMILES beside them. *: point of attachment. Cbz = O=C(OCc1ccccc1)*; CHN2 = [N-]=[N+]=C*
Please respond with reported CC50 for every item in the list.

{"Compound": "COc1ccc2c(c1)[C@]1(CC1c1ccc3c(/C=C/c4ccc(CN5C[C@@H](C)O[C@@H](C)C5)cc4)n[nH]c3c1)C(=O)N2 (some centres unmarked)", "CC50": "7.18 µM"}
{"Compound": "CC(C)Oc1ccc(-c2nc(-c3cccc4c3CC[C@@H]4NCCO)no2)cc1C#N", "CC50": "> 14.7 µM"}
{"Compound": "COc1ccc2c(O[C@@H]3C[C@H]4C(=O)N[C@]5(C(=O)NS(=O)(=O)C6CC6)C[C@H]5/C=C\\CCCCN(C)C(=O)[C@@H]4C3)cc(-c3nc(C(C)C)cs3)nc2c1C", "CC50": "> 22.2 µM"}
{"Compound": "Cc1cccc(/C=N/Nc2cc(N3CCOCC3)n3nc(-c4ccncc4)cc3n2)c1", "CC50": "> 39.4 µM"}
{"Compound": "CN1CCN(c2ccc(C(=O)NCc3cnc(C#N)nc3NCC(C)(C)C)cc2)CC1", "CC50": "> 36.1 µM"}
{"Compound": "OCCN1CCN(CC/C=C2\\c3ccccc3Sc3ccc(Cl)cc32)CC1", "CC50": "> 16.8 µM"}
{"Compound": "COc1cc2c(Nc3ccc(Cl)c(Cl)c3F)ncnc2cc1OC[C@@H]1C[C@@H]2CN(C)C[C@@H]2C1", "CC50": "> 20.6 µM"}
{"Compound": "Cc1c(O)cccc1C(=O)N[C@@H](CSc1ccccc1)[C@H](O)CN1C[C@H]2CCCC[C@H]2C[C@H]1C(=O)NC(C)(C)C [nelfinavir mesylate]", "CC50": "> 18 µM"}

The following compounds each have a reported value; give each one's CC50.
1. C=CC(=O)Nc1cc2c(Nc3ccc(F)c(Cl)c3)ncnc2cc1C#CC(C)(C)N1CCN(C)CC1
2. Cc1cn2nc(-c3cc(=O)n4cc(N5CCNC6(CC6)C5)ccc4n3)cc(C)c2n1
3. Oc1ccc(CCN2CCC(Nc3nc4ccccc4n3Cc3ccc(F)cc3)CC2)cc1

1: 3.18 µM; 2: > 17.8 µM; 3: 16.2 µM

Below is a list of compounds. For each, state its recorded CC50.
1. CC(C)CC(NC(=O)OCc1ccccc1)C(=O)NC(C(=O)NCC(=O)C=[N+]=[N-])C(C)C (stereo not drawn) [Z LVG CHN2] (Cbz-Leu-Val-Gly-CHN2; configuration not given here)
2. CC(C)(C)Cn1c(N)nc2ccc(-c3[nH]c(C(C)(C)C)nc3-c3ccc(F)cc3)nc21 [Ralimetinib mesylate/LY2228820, Ralimetinib mesylate]
3. COc1ccc2c(c1)CN(C)CC2c1ccc(Cl)c(Cl)c1 (centres unmarked)

["> 39.8 µM", "27.4 µM", "10.1 µM"]
